Test system: EKVX NSCLC
Assay: NCI-60 one-dose screen, 48 h (100 = growth as untreated, 0 = no growth, -100 = all killed)
Details: 10 µM unless noted
The panel holds about 83,000 compounds, 20% with a hit somewhere; the sample as a whole holds those more often.
Would you mind telling me the reported growth of each entry?
Hi! Could you send only the number? It should be in %, unit omitted.

Input: Specify the recorded growth for `CN1CCN(Cc2ccc(NC(=O)c3cncc(C#Cc4cnc5cccnn45)c3)cc2C(F)(F)F)CC1` , system: EKVX NSCLC.
Output: -39.1

Input: Specify the recorded growth for `CCNC(=S)N(Cc1ccccc1)Cc1ccccc1` , system: EKVX NSCLC.
Output: 93.1

Input: Specify the recorded growth for CCOC(=O)C1=C(C)NC(SCc2nnc(-c3ccc(Cl)cc3)o2)=NC1c1ccc(Cl)cc1 (stereo not given) , system: EKVX NSCLC.
Output: 80.2

Input: Specify the recorded growth for `C=CCn1c(SCC(=O)Nc2ccc(C(=O)/C=C/c3ccccc3)cc2)nnc1-c1ccc(OC)c(OC)c1` , system: EKVX NSCLC.
Output: 80.7

Input: Specify the recorded growth for `C/C(=N\NC(=S)N1CCCCC1)c1ccccn1` , system: EKVX NSCLC.
Output: -4.33

Input: Specify the recorded growth for C/C=C(\C)C(C(=O)NC1CCCCC1)N(C(=O)C1CCc2cc(F)ccc2O1)c1ccc([N+](=O)[O-])cc1 (stereo not given) , system: EKVX NSCLC.
Output: 84.2

Input: Specify the recorded growth for CCN(CC)CCC(CNc1ccnc2cc(Cl)ccc12)c1ccc(O)cc1 (stereo not given) , system: EKVX NSCLC.
Output: 99.4

Input: Specify the recorded growth for `COc1ccc2[nH]c(O)c(/C=c3/ccc4c(c3)N=C(c3ccc(F)cc3)N=4)c2c1` , system: EKVX NSCLC.
Output: 80.4

Input: Specify the recorded growth for CCCCCCCCNC(C)C(O)c1ccc(SC(C)C)cc1 (stereo not given) , system: EKVX NSCLC.
Output: 25.2

Input: Specify the recorded growth for `O=C(Nc1cnc(C(F)(F)F)cn1)c1cc(Cl)ccc1O` , system: EKVX NSCLC.
Output: 7.75

* * *

Would you mind telling me the reported growth of each entry?
Test system: KM12 colon
Test: NCI-60 one-dose screen, 48 h (100 = growth as untreated, 0 = no growth, -100 = all killed)
Details: 10 µM unless noted
The panel holds about 83,000 compounds, 20% with a hit somewhere; the sample as a whole holds those more often. Calls of active or inactive are those of the source. How the source made its calls: active means growth percent below 10; inactive means the rest.

Input: Return growth (reported value) for this compound: `C#CCNC(=S)N/N=C(\C)c1ccccn1`
Output: 23.5% (inactive)

Input: Return growth (reported value) for this compound: `NC(=Nc1ccccc1)SCCCSC(N)=Nc1ccccc1`
Output: 94.7% (inactive)

Input: Return growth (reported value) for this compound: `Clc1cn2cc(-c3ccc(Cl)c(Cl)c3Cl)nc2s1`
Output: 111% (inactive)

Input: Return growth (reported value) for this compound: `Cc1nc2ccc(Nc3nc(Cl)nc(N4CCOCC4)n3)cc2n1Cc1ccccc1`
Output: 95.8% (inactive)

Input: Return growth (reported value) for this compound: `Clc1ccc2c(c1)-c1ccccc1C1=NCCN12`
Output: 33.3% (inactive)

Input: Return growth (reported value) for this compound: `COc1cc(-c2csc(NC(=O)Nc3cccc(C(F)(F)F)c3)n2)cc(OC)c1OC`
Output: 34.5% (inactive)

Input: Return growth (reported value) for this compound: `COc1ccc(Sc2[nH]c(C=O)c3ccccc23)cc1`
Output: 22% (inactive)

Input: Return growth (reported value) for this compound: Nc1ncnc2c1N=C(c1ccc(F)cc1)CC(c1sc(Cl)nc1Cl)N2 (stereo not given)
Output: 105% (inactive)

Input: Return growth (reported value) for this compound: `Cc1c(-c2ccc(-c3ccccc3F)cc2)nc2ccc(F)cc2c1C(=O)O`
Output: 35.2% (inactive)

Input: Return growth (reported value) for this compound: `COc1cc(Cn2c(-c3ccccc3)cc3c2-c2oncc2CC3)cc(OC)c1OC`
Output: 26.2% (inactive)

Input: Return growth (reported value) for this compound: N#CC1=C(N)Oc2nc[nH]c(=O)c2C1c1cccs1 (stereo not given)
Output: 108% (inactive)

Input: Return growth (reported value) for this compound: `Nc1cccc(S(=O)(=O)c2cccc(N)c2)c1`
Output: 129% (inactive)

Input: Return growth (reported value) for this compound: `O=C(Nc1ccc(Cl)c(C(F)(F)F)c1)c1ccc(Nc2ccc(Cl)nn2)cc1`
Output: 51.1% (inactive)

Input: Return growth (reported value) for this compound: `CN(C)c1ccc(/C=C(\C#N)c2nc3ccccc3n2C)cc1`
Output: 26.2% (inactive)

Input: Return growth (reported value) for this compound: `CC(=O)c1c(C)nc(-c2cc(C)cc(Cl)c2)nc1-c1cccc(Oc2ccccc2)c1`
Output: 30.7% (inactive)

Input: Return growth (reported value) for this compound: `COc1ccc(/C=C(/C(=O)N2CCN(c3ccccc3)CC2)c2cc(OC)c(OC)c(OC)c2)cc1N`
Output: 14.4% (inactive)

Input: Return growth (reported value) for this compound: `CC1(C)CC[C@]2(C(=O)N3CCNCC3)CC[C@]3(C)C(=CC[C@@H]4[C@@]5(C)CCC(=O)C(C)(C)[C@@H]5CC[C@]43C)[C@@H]2C1`
Output: 111% (inactive)

Input: Return growth (reported value) for this compound: `C=C(C)[C@@H]1CC[C@]2(C)[C@H](CC=C3[C@@H]4C[C@](C)(C(=O)N5CCN(C)CC5)CC[C@]4(C)CC[C@]32C)[C@@]1(C)CCC#N`
Output: 53.6% (inactive)

Input: Return growth (reported value) for this compound: CC1(C)C(N(O)C(=O)Nc2ccc(Cl)cc2)N(c2ccc(Cl)cc2)C(=O)N1CC(=O)N/N=C/C=C/c1ccc([N+](=O)[O-])o1 (stereo not given)
Output: 23.1% (inactive)

Input: Return growth (reported value) for this compound: O=C1OCC2=C1C(c1cccc(Br)c1)c1cc3c(cc1N2CCO)OCCO3 (stereo not given)
Output: -33.9% (active)

Input: Return growth (reported value) for this compound: Nc1n[nH]c2ccc([C@@H]3Nc4c(F)cc5[nH]ncc5c4[C@H]4C5CCC(C5)[C@@H]34)cc12 (stereo not given in full)
Output: 10.4% (inactive)

Input: Return growth (reported value) for this compound: CCc1ccc2c(c1)N(CCO)C1=C(C(=O)OC1)C2c1cccc(Br)c1 (stereo not given)
Output: 19.2% (inactive)

Input: Return growth (reported value) for this compound: `Cc1cc(C)c2c(n1)sc1c(Nc3ccc(OCc4ccccc4)cc3)ncnc12`
Output: 94.2% (inactive)

Input: Return growth (reported value) for this compound: `N=c1n(Cc2ccccc2)c(N)cc(=O)n1Cc1ccccc1`
Output: 39.2% (inactive)

Input: Return growth (reported value) for this compound: `O=C(O)/C=C(\c1nc2ccc([N+](=O)[O-])cc2[nH]1)c1cc(Cl)ccc1O`
Output: 21.3% (inactive)

Input: Return growth (reported value) for this compound: Cc1ccc(NC(=O)c2nc(S(C)=O)oc2-c2ccc(F)cc2)cc1Nc1nccc(-c2cccnc2)n1 (stereo not given)
Output: 50.1% (inactive)

Input: Return growth (reported value) for this compound: `O=C1C=CC(=O)N1CO`
Output: 128% (inactive)

Input: Return growth (reported value) for this compound: `Cc1ccc2oc(=O)cc(-c3nc4ccc([N+](=O)[O-])cc4[nH]3)c2c1`
Output: 59.7% (inactive)

Input: Return growth (reported value) for this compound: `Cc1ccc(NC(=O)c2[nH]c(SCCN(C)C)nc2-c2ccc(F)cc2)cc1Nc1ccc2ncn(C)c(=O)c2c1`
Output: 49.6% (inactive)

Input: Return growth (reported value) for this compound: `O=c1[nH]c2cc(Cl)c(Cl)cc2o1`
Output: 111% (inactive)

Input: Return growth (reported value) for this compound: `COc1cc(CN2CCO[C@H](COc3cccc(F)c3)C2)ccc1Cl`
Output: 69% (inactive)

Input: Return growth (reported value) for this compound: `N#Cc1nc(-c2ccc(Cl)cc2)cc(-c2ccc(Nc3nc(N4CCCCC4)nc(N4CCCCC4)n3)cc2)c1N`
Output: 107% (inactive)

Input: Return growth (reported value) for this compound: `CC(=O)N(C)c1ccc(Nc2cc(C)[nH]c3ccc4ncnc4c23)cc1`
Output: 67.6% (inactive)

Input: Return growth (reported value) for this compound: `CCCCn1cnc(-c2cc(-c3ccccc3)cc(C(F)(F)F)c2)n1`
Output: 101% (inactive)

Input: Return growth (reported value) for this compound: CCOC(=O)C1=C(C)NC(SCc2nnc(-c3ccc(Cl)cc3)o2)=NC1c1ccc(Br)cc1 (stereo not given)
Output: 76% (inactive)

Input: Return growth (reported value) for this compound: `COc1cc2nccc(Oc3ccc(NC(=O)C4(C(=O)Nc5ccc(F)cc5)CC4)cc3)c2cc1OC(=O)c1ccc(N)cc1`
Output: 12.3% (inactive)

Input: Return growth (reported value) for this compound: CC(=O)OC1Oc2ccccc2-c2oc3nc(=N)n(C)c-3cc21 (stereo not given)
Output: 209% (inactive)

Input: Return growth (reported value) for this compound: `CC(=O)Nc1ccc(Cl)cc1Cl`
Output: 112% (inactive)

Input: Return growth (reported value) for this compound: `COc1ccc(/C=c2\c(=O)n(-c3ccccc3)c3nn4c(n23)=NNC42CCCCC2)cc1`
Output: 102% (inactive)

Input: Return growth (reported value) for this compound: CCN(CC)CCCC(C)Nc1cnc(C(=O)Nc2cc(C)cc3cccnc23)cn1 (stereo not given)
Output: 97.9% (inactive)

From: PubChem BioAssay (NCI)
